- System: colon cancer cell line HCT 116
- testMethodNotes: Growth profile / viability of HCT116 colon cancer cells, XTT test
- Assay type: cell-based
- assayConditions: Homo sapiens, HCT-116, 96 h, Control DMSO = 100%, first HCT116 column, read-out: percentage of viable cells, HCT116
The entries below come with measured viability at 5 µM values attached.
readoutLabel: viability at 5 µM

>>> print(df.to_string())
                                   molecule  reportedmeasurement
0  O=C(C1CCN(c2nn3cc(-c4ccc(Cl)cc4)nc3s2)CC1)N1CCN(c2ncccn2)CC1 [Compound Z522-0204]                  97%
1  CN(C)CCNC(=O)CN1CCN(C(=O)C2CCN(c3nn4cc(-c5ccc(Cl)cc5)nc4s3)CC2)CC1 [Compound Z522-0218]                  51%
2  O=C(C1CCN(c2nn3cc(-c4ccc(Cl)cc4)nc3s2)CC1)N1CCCC(CN2CCOCC2)C1 (stereo not shown) [Compound Z522-0214]                  70%
3  Cc1ccc(C)n1CCN1CCN(C(=O)C2CCN(c3nn4cc(-c5ccc(C(C)C)cc5)nc4s3)CC2)CC1 [Compound Z522-0232]                  79%
4  CN1CCC(N2CCN(C(=O)C3CCN(c4nn5cc(-c6ccc(Cl)cc6)nc5s4)CC3)CC2)CC1 [Compound Z522-0207]                   0%
5  CC1CCCN(c2ccc(-c3cn4nc(N5CCC(C(=O)N6CCN(C)CC6)CC5)sc4n3)cc2)C1 (stereo not shown) [Compound Z522-0166]                  30%
6  CC(C)c1ccc(-c2cn3nc(N4CCC(C(=O)N5CCN(c6ccccn6)CC5)CC4)sc3n2)cc1 [Compound Z522-0223]                  75%

###

- Tested on: colon cancer cell line HT29
- testMethodNotes: Growth profile / viability of HT29 colon cancer cells, XTT test
- Assay type: cell-based
- assayConditions: Homo sapiens, HT-29, 96 h, Control DMSO = 100%, second HT29 column, read-out: percentage of viable cells, HT29
Response field label takes label 1 when viability at 5 µM is strictly below 8% and label 0 in all other cases.

In [3]: df
Out[3]:
                                    compound  grouplabel
 0  CC(C)c1ccc(-c2cn3nc(N4CCC(C(=O)N5CCN(c6ccccn6)CC5)CC4)sc3n2)cc1     label 0
 1  CC(C)c1ccc(-c2cn3nc(N4CCC(C(=O)N5CCN(CC(=O)NCCN(C)C)CC5)CC4)sc3n2)cc1     label 1
 2  CC(C)c1ccc(-c2cn3nc(N4CCC(C(=O)N(C)CCc5ccccn5)CC4)sc3n2)cc1     label 0
 3  CN1CCN(C(=O)CN2CCN(C(=O)C3CCN(c4nn5cc(-c6ccc(Cl)cc6)nc5s4)CC3)CC2)CC1     label 0
 4  Cc1c(-c2ccc(-n3cccn3)cc2)nc2sc(N3CCC(C(=O)N4CCN(C)CC4)CC3)nn12     label 0
 5  CC(C)c1ccc(-c2cn3nc(N4CCC(C(=O)N5CCCCC5CCN5CCOCC5)CC4)sc3n2)cc1 (stereo not shown)     label 1
 6  Cc1c(-c2ccc(N3CCN(C)CC3)cc2)nc2sc(N3CCC(C(=O)N4CCN(C)CC4)CC3)nn12     label 0
 7  O=C(C1CCN(c2nn3cc(-c4ccc(Cl)cc4)nc3s2)CC1)N1CCCC(CN2CCOCC2)C1 (stereo not shown)     label 0
 8  CC(C)c1ccc(-c2cn3nc(N4CCC(C(=O)N5CCCCC5CCN5CCCCC5)CC4)sc3n2)cc1 (stereo not shown)     label 1
 9  O=C(C1CCN(c2nn3cc(-c4ccc(Cl)cc4)nc3s2)CC1)N1CCCCC1CN1CCOCC1 (stereo not shown)     label 0
10  CCN(CC)CCN(CC)C(=O)C1CCN(c2nn3cc(-c4ccc(Cl)cc4)nc3s2)CC1     label 1
11  CC(C)c1ccc(-c2cn3nc(N4CCC(C(=O)N(C)CC(=O)NCCN(C)C)CC4)sc3n2)cc1     label 1
12  CC(C)c1ccc(-c2cn3nc(N4CCC(C(=O)N5CCCN(c6ncccn6)CC5)CC4)sc3n2)cc1     label 0
13  O=C(C1CCN(c2nn3cc(-c4ccc(Cl)cc4)nc3s2)CC1)N1CCCCC1CN1CCCC1 (stereo not shown)     label 1
14  Cc1c(-c2ccc(N3CCCCCC3)cc2)nc2sc(N3CCC(C(=O)N4CCN(C)CC4)CC3)nn12     label 0

###

- Tested on: colon cancer cell line HT29
- testMethodNotes: Growth profile / viability of HT29 colon cancer cells, XTT test
- Format: cell-based
- assayConditions: Homo sapiens, HT-29, 96 h, Control DMSO = 100%, second HT29 column, read-out: percentage of viable cells, HT29
Under this convention, 1 denotes viability at 5 µM strictly below 20% and 0 denotes viability at 5 µM at or above 20%.

>>> df
                                givensmiles  grouplabel
0  CCN1CCN(CC2CCN(C(=O)C3CCN(c4nn5cc(-c6ccc(C(C)C)cc6)nc5s4)CC3)CC2)CC1           1
1  Cc1c(-c2ccc(N3CCC(C)CC3)cc2)nc2sc(N3CCC(C(=O)N4CCN(C)CC4)CC3)nn12           1
2  Cc1ccc(C)n1CCN1CCN(C(=O)C2CCN(c3nn4cc(-c5ccc(C(C)C)cc5)nc4s3)CC2)CC1           0
3  CN1CCN(C(=O)C2CCN(c3nn4cc(-c5ccc(N6CCSCC6)cc5)nc4s3)CC2)CC1           0
4  CC(C)c1ccc(-c2cn3nc(N4CCC(C(=O)N(C)CCc5ccncc5)CC4)sc3n2)cc1           0
5  CC(C)c1ccc(-c2cn3nc(N4CCC(C(=O)N5CCN(CCN(C)C)CC5)CC4)sc3n2)cc1           0
6  CC(C)c1ccc(-c2cn3nc(N4CCC(C(=O)N5CCN(CC(=O)N6CCN(C)CC6)CC5)CC4)sc3n2)cc1           1

###

- Tested on: colon cancer cell line HCT 116
- testMethodNotes: Growth profile / viability of HCT116 colon cancer cells, XTT test
- Type: cell-based
- assayConditions: Homo sapiens, HCT-116, 96 h, Control DMSO = 100%, first HCT116 column, read-out: percentage of viable cells, HCT116
Below, each of the compounds is paired with its reported viability at 5 µM value.
readoutLabel: viability at 5 µM (%)

In [3]: df
Out[3]:
                                givensmiles  reportedmeasurement
0  CN(CCc1ccncc1)C(=O)C1CCN(c2nn3cc(-c4ccc(Cl)cc4)nc3s2)CC1                   78
1  CN(C)CCN1CCN(C(=O)C2CCN(c3nn4cc(-c5ccc(Cl)cc5)nc4s3)CC2)CC1                    1
2  Cc1c(-c2ccc(N3CCC(C)CC3)cc2)nc2sc(N3CCC(C(=O)N4CCN(C)CC4)CC3)nn12                   45
3  CC(C)c1ccc(-c2cn3nc(N4CCC(C(=O)N5CCN(c6ncccn6)CC5)CC4)sc3n2)cc1                   72

###

- Tested on: colon cancer cell line HCT 116
- testMethodNotes: Growth profile / viability of HCT116 colon cancer cells, XTT test
- Format: cell-based
- assayConditions: Homo sapiens, HCT-116, 96 h, Control DMSO = 100%, first HCT116 column, read-out: percentage of viable cells, HCT116
Form field: viability at 5 µM (one value per entry).
readoutLabel: viability at 5 µM

                                    molecule       readoutlabel  reportedmeasurement
 0  Cc1c(-c2ccc(N3CCCC(C)C3)cc2)nc2sc(N3CCC(C(=O)N4CCN(C)CC4)CC3)nn12 (stereo not shown)  viability at 5 µM                  23%
 1  CC(C)c1ccc(-c2cn3nc(N4CCC(C(=O)N5CCN(C6CCN(C)CC6)CC5)CC4)sc3n2)cc1  viability at 5 µM                   2%
 2  CN1CCN(C(=O)C2CCN(c3nn4cc(-c5ccc(N6CCN(C)CC6)cc5)nc4s3)CC2)CC1  viability at 5 µM                 105%
 3  Cc1c(-c2ccc(N3CCN(C)CC3)cc2)nc2sc(N3CCC(C(=O)N4CCN(C)CC4)CC3)nn12  viability at 5 µM                  94%
 4  CC(C)c1ccc(-c2cn3nc(N4CCC(C(=O)N(C)CC(=O)N5CCN(C)CC5)CC4)sc3n2)cc1  viability at 5 µM                  82%
 5  CN1CCC(N(C)C(=O)C2CCN(c3nn4cc(-c5ccc(Cl)cc5)nc4s3)CC2)CC1  viability at 5 µM                   5%
 6  O=C(C1CCN(c2nn3cc(-c4ccc(Cl)cc4)nc3s2)CC1)N1CCCCC1CN1CCOCC1 (stereo not shown)  viability at 5 µM                  84%
 7  CC(C)c1ccc(-c2cn3nc(N4CCC(C(=O)N5CCCCC5CN5CCCC5)CC4)sc3n2)cc1 (stereo not shown)  viability at 5 µM                   1%
 8  CC(C)c1ccc(-c2cn3nc(N4CCC(C(=O)N5CCN(CC(=O)NCCN(C)C)CC5)CC4)sc3n2)cc1  viability at 5 µM                  33%
 9  CC(C)c1ccc(-c2cn3nc(N4CCC(C(=O)N(C)CCc5ccncc5)CC4)sc3n2)cc1  viability at 5 µM                  82%
10  CN1CCN(C(=O)C2CCN(c3nn4cc(-c5ccc(N6CCSCC6)cc5)nc4s3)CC2)CC1  viability at 5 µM                  80%
11  CC(C)c1ccc(-c2cn3nc(N4CCC(C(=O)N5CCCCC5CCN5CCOCC5)CC4)sc3n2)cc1 (stereo not shown)  viability at 5 µM                  60%
12  CCN(CC)CCN(CC)C(=O)C1CCN(c2nn3cc(-c4ccc(C(C)C)cc4)nc3s2)CC1  viability at 5 µM                   1%
13  CC(C)c1ccc(-c2cn3nc(N4CCC(C(=O)N5CCCN(c6ncccn6)CC5)CC4)sc3n2)cc1  viability at 5 µM                  88%
14  CN(C)CCN(Cc1ccco1)C(=O)C1CCN(c2nn3cc(-c4ccc(Cl)cc4)nc3s2)CC1  viability at 5 µM                   1%
15  CC(C)c1ccc(-c2cn3nc(N4CCC(C(=O)N(C)CCc5ccccn5)CC4)sc3n2)cc1  viability at 5 µM                  80%
16  Cc1c(-c2ccc(N3CCSCC3)cc2)nc2sc(N3CCC(C(=O)N4CCN(C)CC4)CC3)nn12  viability at 5 µM                  77%
17  CC(C)c1ccc(-c2cn3nc(N4CCC(C(=O)N5CCCN(C)CC5)CC4)sc3n2)cc1  viability at 5 µM                   0%
18  CC(C)N1CCN(c2ccc(-c3cn4nc(N5CCC(C(=O)N6CCN(C)CC6)CC5)sc4n3)cc2)CC1  viability at 5 µM                 105%
19  CN1CCN(C(=O)C2CCN(c3nn4cc(-c5ccc(N(C)CCO)cc5)nc4s3)CC2)CC1  viability at 5 µM                 107%
20  CC(C)c1ccc(-c2cn3nc(N4CCC(C(=O)N5CCCCC5CCN5CCCCC5)CC4)sc3n2)cc1 (stereo not shown)  viability at 5 µM                   1%
21  Cc1c(-c2ccc(N3CCCCCCC3)cc2)nc2sc(N3CCC(C(=O)N4CCN(C)CC4)CC3)nn12  viability at 5 µM                  39%
22  O=C(C1CCN(c2nn3cc(-c4ccc(Cl)cc4)nc3s2)CC1)N1CCCCC1CCN1CCOCC1 (stereo not shown)  viability at 5 µM                  72%
23  Cc1ccc(C)n1CCN1CCN(C(=O)C2CCN(c3nn4cc(-c5ccc(Cl)cc5)nc4s3)CC2)CC1  viability at 5 µM                  71%
24  O=C(C1CCN(c2nn3cc(-c4ccc(Cl)cc4)nc3s2)CC1)N1CCCCC1CN1CCCC1 (stereo not shown)  viability at 5 µM                   2%
25  CN1CCN(C(=O)C2CCN(c3nn4cc(-c5ccc(N6CCOCC6)cc5)nc4s3)CC2)CC1  viability at 5 µM                 109%
26  Cc1c(-c2ccc(N3CCCCCC3)cc2)nc2sc(N3CCC(C(=O)N4CCN(C)CC4)CC3)nn12  viability at 5 µM                  40%
27  CN1CCN(C(=O)CN2CCN(C(=O)C3CCN(c4nn5cc(-c6ccc(Cl)cc6)nc5s4)CC3)CC2)CC1  viability at 5 µM                  63%
